The origin of these recorded values is the supplement of paper PMC9170038.

Test system: K4 kissing-loop RNA reporter;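 note: bound reporter read as fluorescence of individual clusters on recovered sequencing chips by microscopy, with normalized cluster intensities fitted with a binding model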
method_description: apparent KD of K4 kissing-loop reporter; higher = weaker reporter binding
condition_notes: Eterna round: R107; input ligand: none
Entries and their apparent KD of K4 kissing-loop reporter values follow.

{"columns": ["sequence_text", "apparent KD of K4 kissing-loop reporter (µM)"],
 "data": [
  ["AAGCGUGUGGCGGCCGCCACUAGUCUCCAGUGAUGUUGGAGAGAUCACGUAAGUGAUCUCCGACAUAGGACCGGGCCAUAUGGAA [Same State - Tryptophan B (Freestyle 23)]", 0.186],
  ["UUCUUGAUGGAAACAUCGAGGAUUACUGAUACCAGUAUCGAUAGAUACCCUUGGCAGCAGUAUCGGUGAUCACGAGUGAUGUUCG [Ex Theophylline A K4 11]", 0.785],
  ["AGUAGUUGGGCGGCCGCCACUGGAACAGCUUUGCCAAAGGCAGAGCACUAGAGUGAUGUUCUAGCUAGGACCGGGUCCAACUACA [whbob_SS_Tryp_B_t17]", 0.444]
]}
